Where do the numbers come from? From paper PMC11876601.

system: MiaPaCa-2; assay: cells; design: ATPlite luminescence viability of PDAC cell lines, 11-dose single-agent curves, 4-parameter fit; details: Homo sapiens, MIA PaCa-2, 72 h, read-out: EC50 [nM]
# EC50 listing for each entry below
Unit nM implied. Number only.

| item_smiles | unit_symbol | EC50 |
| --- | --- | --- |
| COc1cc2ncnc(Nc3ccc(F)c(Cl)c3)c2cc1NC(=O)/C=C/CN1CCCCC1 | nM | 2210 |

Then there is this compound:
Incoming: Which measured EC50 value corresponds to C[C@@H](Oc1cc(-c2cnn(C3CCNCC3)c2)cnc1N)c1c(Cl)ccc(F)c1Cl ?
Outgoing: 840

###

tested on: AsPC-1 cells; experiment: Cell proliferation assay, chemodrug + ATR inhibitor (Incucyte confluence, 72 h); conditions: Homo sapiens, ASPC1, read-out: EC50 mean, GEM alone, Gartisertib experiment
reported_metric: EC50 (nM)
// units = nM; emit number, no label

Incoming: Give recorded EC50 with AsPC-1 cells for the following compound: Nc1ccn([C@@H]2O[C@H](CO)[C@@H](O)C2(F)F)c(=O)n1
Outgoing: 46

###

tested on: PaTu-8988-T; assay: cells; design: ATPlite luminescence viability of PDAC cell lines, 11-dose single-agent curves, 4-parameter fit; details: Homo sapiens, PaTu 8988t, 72 h, read-out: EC50 [nM]
Quick reference for EC50 among some molecules
Report the value in nM with no unit label.

| item_smiles | reported_metric | observed |
| --- | --- | --- |
| C=CCn1c(=O)c2cnc(Nc3ccc(N4CCN(C)CC4)cc3)nc2n1-c1cccc(C(C)(C)O)n1 | EC50 | 154 |
| Cc1ccc(C(=O)OCc2ccc([C@@H](CN)C(=O)Nc3ccc4cnccc4c3)cc2)c(C)c1 | EC50 | 4320 |

Incoming: I am curious: what EC50 value has been reported for Cc1nc(-c2cn3c(n2)-c2ccc(-c4cnn(C(C)(C)C(N)=O)c4)cc2OCC3)n(C(C)C)n1 ?
Outgoing: 459

###

test system: AsPC-1 cells; assay: Cell proliferation assay, chemodrug + ATR inhibitor (Incucyte confluence, 72 h); conditions: Homo sapiens, ASPC1, 72 h, read-out: EC50 mean [nM], AsPC1; Experiment GEM alone in the Elimusertib series; mean of replicates;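 also: underlying read-out for every value is AsPC-1 confluence after 72 h incubation at 37 °C and 5% CO2, divided by that well's starting confluence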
reported_metric: EC50 (nM)
The answer is to be given in nM; state only the numeric part.

Incoming: Which EC50 is listed for Nc1ccn([C@@H]2O[C@H](CO)[C@@H](O)C2(F)F)c(=O)n1 [GEM, Gemcitabine] ?
Outgoing: 44.4

###

test system: PaTu-8988-T; test: cells; parameters: ATPlite luminescence viability of PDAC cell lines, 11-dose single-agent curves, 4-parameter fit; conditions: Homo sapiens, PaTu 8988t, 72 h, read-out: EC50 [nM]
reported_metric: EC50

| compound | observed |
| --- | --- |
| CNC(=O)c1cc(Oc2ccc(NC(=O)Nc3ccc(Cl)c(C(F)(F)F)c3)c(F)c2)ccn1 | > 10000 nM |
| CN(C)C/C=C/C(=O)Nc1cc2c(Nc3ccc(F)c(Cl)c3)ncnc2cc1O[C@H]1CCOC1 | 2740 nM |
| COc1cc2c(Oc3ccc4[nH]c(C)cc4c3F)ccnc2cc1OCC1(N)CC1 | 1520 nM |
| CC1(COc2ccc3c(c2)ncn3-c2ccc3cccc(N4CCC(N)CC4)c3n2)COC1 | 5450 nM |

Incoming: Entry under review: CCN1CCN(Cc2ccc(Nc3ncc(F)c(-c4cc(F)c5nc(C)n(C(C)C)c5c4)n3)nc2)CC1 . Reported EC50?
Outgoing: 2850 nM

Incoming: Which EC50 value belongs to CC(C)n1nc(-c2ccc3oc(N)nc3c2)c2c(N)ncnc21 ?
Outgoing: 3.95 nM
